src = patent US20130204033A1

- System: Raji
- EXPERIMENT NOTES: ATP luminescence proliferation assay, Raji
- Type: cell-based, human
- SETUP CONDITIONS: ATP luminescence, 72 h incubation, read-out: EC50 Raji (72 h)
Hi! Just check whether EC50 is below 9 nM. Below gives Condition met, equal or above gives Condition not met.

Past entries and their recorded results:
CC[C@H](C)[C@H](NC(=O)[C@H]1CCCCN1C)C(=O)N(C)[C@H](C[C@@H](OC)c1nc(C(=O)N[C@@H](Cc2ccc(N)cc2)CC(C)C(=O)O)cs1)C(C)C (some centres unmarked) [Compound 51]
Condition met
CC[C@H](C)[C@H](NC(=O)[C@H]1CCCCN1C)C(=O)N(COC(=O)CC(C)C)[C@H](C[C@@H](OC(C)=O)c1nc(C(=O)N[C@@H](Cc2ccccc2)C(=O)OC)cs1)C(C)C [Compound 29]
Condition met
CC[C@H](C)[C@H](NC(=O)[C@H]1CCCCN1C)C(=O)N(COC)[C@H](C[C@@H](OC)c1nc(C(=O)N[C@@H](Cc2ccccc2)C(=O)OC)cs1)C(C)C [Compound 29c]
Condition not met

Q: Below 9 nM on EC50? Entry CC[C@H](C)[C@H](NC(=O)[C@H]1CCCCN1C)C(=O)N(COC(=O)CC(C)C)[C@H](C[C@@H](O)c1nc(C(=O)N[C@@H](Cc2ccccc2)C(=O)OC)cs1)C(C)C [Compound 28]
Result: Condition not met
